Reported pIC50 values for a set of compounds
Biological target: 11β-HSD1 (Homo sapiens, UniProt P28845)
Sequence (P28845 whole entry): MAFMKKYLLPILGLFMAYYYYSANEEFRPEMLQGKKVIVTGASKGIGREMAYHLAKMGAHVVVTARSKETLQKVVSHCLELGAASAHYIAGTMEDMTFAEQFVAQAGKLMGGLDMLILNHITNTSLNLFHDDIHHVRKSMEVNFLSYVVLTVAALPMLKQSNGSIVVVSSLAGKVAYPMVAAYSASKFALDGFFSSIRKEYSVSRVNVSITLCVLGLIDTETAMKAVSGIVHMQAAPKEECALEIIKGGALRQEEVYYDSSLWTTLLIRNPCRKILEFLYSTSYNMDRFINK
FYI, pIC50 means -log10 of a concentration in mol per litre.

Field: example entries. Status: answers known.
[
  {
    "compound": "CC1SC(NC23CC4CC(CC(C4)C2)C3)=NC1=O (centres unmarked) [3b]",
    "assay.target": "11β-HSD1 (Homo sapiens, UniProt P28845)",
    "pIC50": 5.45
  },
  {
    "compound": "O=C1N=C(NC23CC4CC(CC(C4)C2)C3)SC12CCCCC2 [3i]",
    "assay.target": "11β-HSD1 (Homo sapiens, UniProt P28845)",
    "pIC50": 6.51
  }
]

Task: Would you mind telling me what pIC50 value was observed for CC(C)C1SC(NC23CC4CC(CC(C4)C2)C3)=NC1=O (centres unmarked) [3e] ?
Output: 5.92

Task: So what's the measured pIC50 for this one? CCCC1SC(NC23CC4CC(CC(C4)C2)C3)=NC1=O (centres unmarked) [3d]
Output: 5.49
